For each of the compounds below, state its LD50.
Test: Acute toxicity (LD50) in mice
Type: in vivo
Conditions: mouse, in vivo; mice, intravenous; compounds tested in a solution containing ascorbic acid; read-out: LD50 intravenous
One number for each entry, in mg/kg.

CCC12CCCN3CCc4c(n(c5ccccc45)C(C(=O)NC4CC4)C1)C32 (stereo not drawn) [SLD 105, N-cyclopropyldesoxyvincaminamide] : 76

Please supply LD50 for each of the following items, keeping them in order.
1. CCC12CCCN3CCc4c(n(c5ccccc45)C(C(N)=O)C1)C32 (stereo not drawn) [SLC 156, Desoxyvincaminamide]
2. CC[C@]12CCCN3CCc4c(n(c5ccccc45)[C@@](O)(C(=O)OC)C1)[C@@H]32 [Vincamine, reference compound]

OUTPUT:
1. 109
2. 75

Numbers sourced from patent US4011330A.
